Test system: bedstraw
Protocol Summary: Test B pre/postemergence bedstraw
Format: in vivo, Galium aparine
Test Context: Rate 125 g/ha; Postemergence; scale 0 to 10, 0 no effect, 10 complete control
Bedstraw plant response rating listing for selected molecules.
Metric Name: Bedstraw plant response rating

[[record]]
molecule = "CC(C)N(C(=O)n1oc(=O)n(-c2ccc(F)cc2F)c1=O)c1ccc(F)cc1F [Compound 22]"
reading = 2

[[record]]
molecule = "CCN(C(=O)n1oc(=O)n(-c2ccc(F)cc2F)c1=O)C1CCCCC1 [Compound 23]"
reading = 0

[[record]]
molecule = "Cc1ccc(-n2c(=O)on(C(=O)N(c3ccc(F)cc3F)C(C)C)c2=O)c(C)c1 [Compound 24]"
reading = 3

[[record]]
molecule = "Cc1ccccc1-n1c(=O)on(C(=O)N(c2ccc(F)cc2)C2CC2)c1=O [Compound 37]"
reading = 0

[[record]]
molecule = "COc1ccc(-n2c(=O)on(C(=O)N(c3ccc(F)cc3)C(C)C)c2=O)cc1 [Compound 5]"
reading = 3


###

Test system: corn
Protocol Summary: Test B pre/postemergence corn
Type: in vivo, Zea mays
Test Context: Preemergence, Rate 125 g/ha; scale of 0 to 10 where 0 is no effect and 10 is complete control
Metric Name: Plant response rating, Corn

[[record]]
molecule = "CC(C)N(C(=O)n1oc(=O)n(COC(=O)C(C)(C)C)c1=O)c1ccc(F)cc1 [Compound 462]"
target_entity = "corn"
metric_name = "Plant response rating, Corn"
reading = 0

[[record]]
molecule = "CC(C)N(C(=O)n1oc(=O)n(CC#N)c1=O)c1ccc(F)cc1 [Compound 395]"
target_entity = "corn"
metric_name = "Plant response rating, Corn"
reading = 0

[[record]]
molecule = "CC(C)Cn1c(=O)on(C(=O)N(c2ccccc2)C(C)C)c1=O [Compound 410]"
target_entity = "corn"
metric_name = "Plant response rating, Corn"
reading = 0


###

Tested on: sugar beet
Protocol Summary: Test B pre/postemergence sugar beet
Assay type: in vivo, Beta vulgaris
Test Context: Rate 62 g/ha, Preemergence; scale 0 to 10
Protocol: […] At the same time, these crop and weed species were also treated with postemergence applications of test chemicals formulated in the same manner. […] Treated plants and controls were maintained in a greenhouse for twelve to sixteen days, after which all species were compared to controls and visually evaluated. […]
Sugarbeets plant response rating listing for selected compounds.
Metric Name: Sugarbeets plant response rating

[[record]]
compound = "CCOC(CC)n1c(=O)on(C(=O)N(c2ccccc2)C(C)C)c1=O (centres unmarked)"
metric_name = "Sugarbeets plant response rating"
reading = 0

[[record]]
compound = "CC(C)N(C(=O)n1oc(=O)n(C(C)C(=S)N(C)C)c1=O)c1ccc(F)cc1F (centres unmarked)"
metric_name = "Sugarbeets plant response rating"
reading = 2

[[record]]
compound = "CC(CBr)Cn1c(=O)on(C(=O)N(c2ccc(F)cc2)C(C)C)c1=O (centres unmarked)"
metric_name = "Sugarbeets plant response rating"
reading = 0

[[record]]
compound = "CC(C)N(C(=O)n1oc(=O)n(CCCCCl)c1=O)c1ccc(Cl)cc1"
metric_name = "Sugarbeets plant response rating"
reading = 0

[[record]]
compound = "C#CCn1c(=O)on(C(=O)N(c2ccc(F)cc2F)C(C)C)c1=O"
metric_name = "Sugarbeets plant response rating"
reading = 0


###

Plant response rating, Wild oats listing for selected compounds.
System: wild oat
Protocol Summary: Test B pre/postemergence wild oat
Assay type: in vivo, Avena fatua
Test Context: Postemergence, Rate 250 g/ha; scale 0 to 10, 0 is no effect, 10 is complete control
Metric Name: Plant response rating, Wild oats

[[record]]
compound = "CC(C)N(C(=O)n1oc(=O)n(N2CCOCC2)c1=O)c1ccc(F)cc1 [Compound 385]"
metric_name = "Plant response rating, Wild oats"
reading = 2

[[record]]
compound = "CC1CC1n1c(=O)on(C(=O)N(c2ccc(F)cc2F)C(C)C)c1=O (stereo not shown) [Compound 372]"
metric_name = "Plant response rating, Wild oats"
reading = 5

[[record]]
compound = "CC(C)N(C(=O)n1oc(=O)n(C2(C)CC2)c1=O)c1ccc(F)cc1F [Compound 363]"
metric_name = "Plant response rating, Wild oats"
reading = 1

[[record]]
compound = "CCOC(=O)C(C)N(C(=O)n1oc(=O)n(C)c1=O)c1ccc(F)cc1 (stereo not shown) [Compound 365]"
metric_name = "Plant response rating, Wild oats"
reading = 0

